- assayedSystem: B1R receptor of the rat (rB1R) (Rattus norvegicus, UniProt P97583)
- Construct: expressed in transfected cells; host or cells: CHO K1 cells
- Sequence (P97583 1-337): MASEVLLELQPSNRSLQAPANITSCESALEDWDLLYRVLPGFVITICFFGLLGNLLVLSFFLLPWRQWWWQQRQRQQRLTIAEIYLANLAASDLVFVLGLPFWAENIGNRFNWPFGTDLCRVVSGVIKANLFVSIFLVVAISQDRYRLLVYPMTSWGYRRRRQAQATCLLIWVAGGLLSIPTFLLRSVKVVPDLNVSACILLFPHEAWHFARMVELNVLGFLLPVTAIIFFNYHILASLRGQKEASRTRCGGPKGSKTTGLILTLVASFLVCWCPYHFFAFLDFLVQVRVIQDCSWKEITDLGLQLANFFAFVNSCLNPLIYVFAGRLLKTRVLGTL
- assayComment: Functional investigation on the bradykinin 1 receptor (B1R), FLIPR Ca2+ assay, rB1R cells
- Type: cell-based
- conditionInfo: test substance 10 μM; CHO K1 cells transfected with rat B1R gene; Fluo-4 Ca2+ signal; agonist Des-Arg9-bradykinin at EC80; % of maximum achievable inhibition; read-out: B1R antagonism, rat [10 μM] % inhibition
Counter-ions that a name gives are not always drawn.
recordedEndpoint: inhibition at 10 µM (%)

1. Cc1cc(S(=O)(=O)N2CCC[C@H]2CCCS(=O)(=O)N2[C@@H]3CC[C@H]2C[C@H](Oc2ccncc2)C3)c(C)cc1Cl    97
2. O=S(=O)(CCC1CCN(S(=O)(=O)c2ccc(Cl)c(Cl)c2)C1)N1CCN(c2ccncc2)CC1 (centres unmarked) [Example 24, hydrochloride]    33
3. Cc1cccc(Cl)c1S(=O)(=O)N1CCCCC1CCCS(=O)(=O)N1CCC2(CCN(c3ccncc3)CC2)CC1 (centres unmarked)    101
4. COc1cc(C)c(S(=O)(=O)N2c3ccccc3CC2CCCS(=O)(=O)N2CCC3(CCN(c4ccncc4)CC3)CC2)c(C)c1 (centres unmarked)    102
5. O=S(=O)(CCC[C@@H]1CCCN1S(=O)(=O)c1ccc2ccccc2c1)N1[C@@H]2CC[C@H]1C[C@H](Oc1ccncc1)C2    54
6. COc1ccc(S(=O)(=O)N2CCC[C@H]2CCCS(=O)(=O)N2CCC3(CCN(c4ccncc4)CC3)CC2)c2ccccc12    97

A: Cc1cc(F)cc(C)c1S(=O)(=O)N1CCC[C@H]1CCCS(=O)(=O)N1CCC(Oc2ccncc2)CC1
B: Cc1cc(S(=O)(=O)N2CCC(CCS(=O)(=O)N3CCC(CCN4CCCC4)CC3)C2)c(C)cc1Cl (centres unmarked)
Between A and B , which one shows the larger inhibition at 10 µM value? I would appreciate it if you answered with the label of your choice. A
(A: 99%, B: 13%)

* * *

- assayedSystem: B1R receptor of the rat (rB1R) (Rattus norvegicus)
- Construct: expressed in transfected cells; host or cells: CHO K1 cells
- assayComment: Functional investigation on the bradykinin 1 receptor (B1R), FLIPR Ca2+ assay, rB1R cells
- Format: cell-based
- conditionInfo: test substance 10 μM; CHO K1 cells transfected with rat B1R gene; Fluo-4 Ca2+ signal; agonist Des-Arg9-bradykinin at EC80; % of maximum achievable inhibition; read-out: B1R antagonism, rat [10 μM] % inhibition
Structures can show the parent of a compound that is named as a salt.
recordedEndpoint: inhibition at 10 µM (%)

Answered cases to consult:
1. O=S(=O)(CCC[C@@H]1CCCN1S(=O)(=O)c1cccc2c(Cl)cccc12)N1CCC2(CCN(c3ccncc3)CC2)CC1 [Example 76]    95
2. COc1cc(C)c(S(=O)(=O)N2CC(CCS(=O)(=O)N3CCC(CCN4CCCC4)CC3)CO2)c(C)c1C (stereo not drawn) [Example 15]    18
3. COc1cc(C)c(S(=O)(=O)N2CCC[C@H]2CCCS(=O)(=O)N2CC(N3[C@@H]4CC[C@H]3C[C@H](Oc3ccncc3)C4)C2)c(C)c1 [Example 80]    102

P: Cc1cc(S(=O)(=O)N2CCC[C@H]2CCCS(=O)(=O)N2CCC(Oc3ccncc3)CC2)c(C)cc1Cl [Example 53]
Q: COc1cc(C)c(S(=O)(=O)N2CCC(CCS(=O)(=O)N3CCC(CCN4CCCC4)CC3)C2)c(C)c1C (stereo not drawn) [Example 16, hydrochloride]
R: Cc1cc(S(=O)(=O)N2CCC(CCS(=O)(=O)N3CCN(Cc4cccc(C#N)c4)CC3)C2)c(C)cc1Cl (stereo not drawn) [Example 43, hydrochloride]
List from greatest to least inhibition at 10 µM. Note for the reader: the ranking is given by listing the labels in the order requested. P, R, Q

Data provenance is patent US8119805B2.
